assay: Selectivity index, ratio of IC50 for cytotoxicity against CHO cells to IC50 for CQ-sensitive Plasmodium falciparum NF54 infected in human type O+ erythrocytes; type: toxicity, cell-based; conditions: Chinese hamster, read-out: Ratio IC50
measurement-label: selectivity ratio

[[record]]
smiles_str = "CC(C)(C)c1cc(C(=O)Nc2cccnc2)cc(C(=O)Nc2cccnc2)c1"
reported = 308


* * *

test system: Plasmodium falciparum; assay: Antimalarial activity against CQ-resistant Plasmodium falciparum K1 infected in human type O+ erythrocytes assessed as growth inhibition incubated for 48 hrs by LDH assay; type: functional, organism-based; details: K1, 48 h
pIC50: −log10 of the molar value.
measurement-label: pIC50

[[record]]
smiles_str = "CC(C)(C)c1cc(C(=O)Nc2cccnc2)cc(C(=O)Nc2cccnc2)c1"
reported = 5.77


* * *

tested on: Plasmodium falciparum; assay: Antimalarial activity against CQ-sensitive Plasmodium falciparum NF54 infected in human type O+ erythrocytes assessed as growth inhibition incubated for 48 hrs by LDH assay; assay type: functional, organism-based; conditions: NF54, 48 h
// returns condition not met unless IC50 is strictly below 3 µM, in which case condition met

[[record]]
smiles_str = "O=C(Nc1cccnc1)c1cc(C(=O)Nc2cccnc2)cc([N+](=O)[O-])c1"
group_label = "condition met"

[[record]]
smiles_str = "O=C(Nc1ccncc1)c1cc([N+](=O)[O-])cc([N+](=O)[O-])c1"
group_label = "condition met"

[[record]]
smiles_str = "Cc1cc(C(=O)Nc2ccccc2)cc(C(=O)Nc2ccccc2)c1"
group_label = "condition not met"

[[record]]
smiles_str = "O=C(Nc1ccncc1)c1cccc(C(=O)Nc2ccncc2)c1"
group_label = "condition not met"

[[record]]
smiles_str = "COc1cc(C(=O)Nc2ccccc2)cc(C(=O)Nc2ccccc2)c1"
group_label = "condition not met"

[[record]]
smiles_str = "O=C(Nc1cccnc1)c1cc([N+](=O)[O-])cc([N+](=O)[O-])c1"
group_label = "condition not met"

[[record]]
smiles_str = "CC(C)(C)c1cc(C(=O)Nc2ccncc2)cc(C(=O)Nc2ccncc2)c1"
group_label = "condition met"

[[record]]
smiles_str = "O=C(Nc1ccncc1)c1cc(C(=O)Nc2ccncc2)cc([N+](=O)[O-])c1"
group_label = "condition met"

[[record]]
smiles_str = "O=C(Nc1ccccn1)c1cc([N+](=O)[O-])cc([N+](=O)[O-])c1"
group_label = "condition not met"

[[record]]
smiles_str = "O=C(Nc1ccccc1)c1cc(C(=O)Nc2ccccc2)cc([N+](=O)[O-])c1"
group_label = "condition met"

[[record]]
smiles_str = "CC(C)(C)c1cc(C(=O)Nc2ccccc2)cc(C(=O)Nc2ccccc2)c1"
group_label = "condition not met"

[[record]]
smiles_str = "N#Cc1cc(C(=O)Nc2ccncc2)cc(C(=O)Nc2ccncc2)c1"
group_label = "condition met"

[[record]]
smiles_str = "O=C(Nc1ccccc1)c1cccc(C(=O)Nc2ccccc2)c1"
group_label = "condition not met"

[[record]]
smiles_str = "O=C(Nc1ccccc1)c1ccccc1[N+](=O)[O-]"
group_label = "condition not met"

[[record]]
smiles_str = "O=C(Nc1ccccc1)c1cc([N+](=O)[O-])cc([N+](=O)[O-])c1"
group_label = "condition not met"

[[record]]
smiles_str = "O=C(Nc1ccncc1)c1cccc(C(=O)Nc2ccncc2)n1"
group_label = "condition not met"

[[record]]
smiles_str = "Cc1cc(C(=O)Nc2ccncc2)cc(C(=O)Nc2ccncc2)c1"
group_label = "condition met"

[[record]]
smiles_str = "CC(C)(C)c1cc(C(=O)Nc2cccnc2)cc(C(=O)Nc2cccnc2)c1"
group_label = "condition met"

[[record]]
smiles_str = "O=C(Nc1ccccc1)c1cc(C(=O)Nc2ccccc2)cc(C(=O)Nc2ccccc2)c1"
group_label = "condition not met"

[[record]]
smiles_str = "CN(C)Cc1ccc(NC(=O)c2cc(C(=O)Nc3ccc(CN(C)C)cc3)cc([N+](=O)[O-])c2)cc1"
group_label = "condition met"

[[record]]
smiles_str = "O=C(Nc1ccccc1)c1cccc(C(=O)Nc2ccccc2)n1"
group_label = "condition not met"

